- study.system: T1, canine NGF tagged at the C-terminus with the Flag tag (canine, UniProt A0A8I3PYI3 122-241)
- T1 construct: mature; Expressed with baculovirus technology; also called feline NGF (processed form identical)
- T1 sequence (A0A8I3PYI3 entry or part of it): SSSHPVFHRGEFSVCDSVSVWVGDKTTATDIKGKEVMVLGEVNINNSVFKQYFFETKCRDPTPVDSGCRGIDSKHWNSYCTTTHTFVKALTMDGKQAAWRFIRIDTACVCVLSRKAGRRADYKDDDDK
- assay.remarks: SPR off-rate screen, Fab-SASA on BSA chip
assay.endpoint: Ratio WT-kd/clone-kd
Reply with just the number.

Known results for binders:
binder: felinized clone 101 Fab-SASA variant G55R (VH) (Fab, V domains shown, not shown: small tags and cut ends) VH: DVQLVESGGDLVKPGGSLRLTCVASGLSLTSSSMSWVRQAPGKGLQWVSTIYSNRGTYYTDSVKGRFTISKDNAENTLYLQMNNLKTEDTATYYCASIYYYDADYLHWYFDFWGQGALVTVSS VL: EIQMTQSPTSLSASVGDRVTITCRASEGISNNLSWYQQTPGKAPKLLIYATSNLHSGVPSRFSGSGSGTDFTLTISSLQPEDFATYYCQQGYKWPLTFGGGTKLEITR
assay.endpoint: Ratio WT-kd/clone-kd
measured.number: 6.41
--
binder: felinized clone 101 Fab-SASA variant S97H (VH) (Fab, V domains shown, not shown: small tags and cut ends) VH: DVQLVESGGDLVKPGGSLRLTCVASGLSLTSSSMSWVRQAPGKGLQWVSTIYSNGGTYYTDSVKGRFTISKDNAENTLYLQMNNLKTEDTATYYCAHIYYYDADYLHWYFDFWGQGALVTVSS VL: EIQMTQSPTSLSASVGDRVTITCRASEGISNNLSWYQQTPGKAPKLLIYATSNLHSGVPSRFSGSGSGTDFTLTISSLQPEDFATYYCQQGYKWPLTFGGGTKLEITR
assay.endpoint: Ratio WT-kd/clone-kd
measured.number: 1.77

Would you kindly look at the next entry?
Prompt line: # query: Ratio WT-kd/clone-kd of entry felinized clone 101 Fab-SASA variant S28H (VH) (Fab, V domains shown, not shown: small tags and cut ends) VH: DVQLVESGGDLVKPGGSLRLTCVASGLHLTSSSMSWVRQAPGKGLQWVSTIYSNGGTYYTDSVKGRFTISKDNAENTLYLQMNNLKTEDTATYYCASIYYYDADYLHWYFDFWGQGALVTVSS VL: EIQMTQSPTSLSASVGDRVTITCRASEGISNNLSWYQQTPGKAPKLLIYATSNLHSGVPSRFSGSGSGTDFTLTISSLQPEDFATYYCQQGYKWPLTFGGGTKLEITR
Response line: 1.18
